Source: patent US9868746B2

Target: mAChR M4 (Homo sapiens)
Construct: expressed in transfected cells; host or cells: CHO-K1 cells stably transfected with M4 cDNA and chimeric G-protein Gqi5
Sequence (P08173 1-479): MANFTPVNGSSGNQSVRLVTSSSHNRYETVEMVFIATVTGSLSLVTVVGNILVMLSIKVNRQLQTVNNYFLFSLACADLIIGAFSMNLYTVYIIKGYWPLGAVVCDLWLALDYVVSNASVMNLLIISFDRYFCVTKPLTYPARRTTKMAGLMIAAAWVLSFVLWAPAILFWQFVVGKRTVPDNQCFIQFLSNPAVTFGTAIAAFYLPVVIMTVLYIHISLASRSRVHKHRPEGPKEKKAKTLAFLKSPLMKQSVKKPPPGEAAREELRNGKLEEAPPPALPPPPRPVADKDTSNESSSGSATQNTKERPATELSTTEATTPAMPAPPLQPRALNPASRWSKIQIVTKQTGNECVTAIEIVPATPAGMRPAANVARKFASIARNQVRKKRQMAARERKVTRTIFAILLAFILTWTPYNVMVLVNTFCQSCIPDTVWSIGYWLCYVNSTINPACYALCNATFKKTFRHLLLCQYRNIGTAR
Experiment: mAChR M4 cell-based functional assay (calcium mobilization, potentiation of EC20 acetylcholine response)
Details: % ACh maximum at 30 μM
Dear colleague, classification is by Emax at 30 µM, with ranges listed here: low (below 60%), middle (60% to below 70%), high (70% or more)

Reference set, count: 2
[
  {
    "compound": "Cc1nnc2sc(C(=O)N[C@@H]3CCN(c4ccccc4)C3)c(N)c2c1C",
    "assignedCategory": "low"
  },
  {
    "compound": "Cc1nnc2sc(C(=O)N3CC4CN(C(=O)c5ccc(F)cc5)CC4C3)c(N)c2c1C (centres unmarked)",
    "assignedCategory": "low"
  }
]

// bin(item) where item = `Cc1nnc2sc(C(=O)NCc3cccnc3)c(N)c2c1C`
high

Where would `Cc1nnc2sc(C(=O)NCc3ccco3)c(N)c2c1C` land among the classes by reported Emax at 30 µM?
high

Lab note: which band did `Cc1nnc2sc(C(=O)NC3CN(C(=O)C4CCC4)C3)c(N)c2c1C` land in?
high

// return the class label for Cc1nnc2sc(C(=O)N3CCC(NC(=O)CC4CCCCC4)C3)c(N)c2c1C (centres unmarked)
middle

Into which bin does this compound go? `COC1(c2cccc(F)c2)CN(C(=O)c2sc3nnc(C)c(C)c3c2N)C1`
low
